- Test system: HCT116 colorectal carcinoma cells
- test_summary: MTS cell viability / cell growth inhibition assay
- Format: cell-based, human
- conditions: Homo sapiens, HCT-116, 72 h, read-out: GI50 value
quantity: GI50 (nM)
The response must be a number in nM with no trailing unit.

# molecule, GI50 [nM]
records = [
    ("CC[C@H](OC)[C@@H](C)[C@H]1O[C@@H]1[C@H](O)[C@H](C)/C=C/C=C(\\C)[C@H]1OC(=O)C[C@H](O)CC[C@@](C)(O)[C@H](OC(C)=O)/C=C/[C@@H]1C", 432),
]

I have this molecule here, CC[C@H](OC)[C@@H](C)[C@H]1O[C@@H]1[C@H](O)[C@H](C)/C=C/C=C(\C)[C@@H]1OC(=O)C[C@H](O)CC[C@@](C)(O)[C@@H](OC(C)=O)/C=C/[C@H]1C [Analog 1c, 10R,11R-FD-895] , and I need its recorded GI50.
36600

Query "CC[C@H](OC)[C@@H](C)[C@H]1O[C@@H]1[C@H](O)[C@H](C)/C=C/C=C(\C)[C@H]1OC(=O)C[C@@H](O)CC[C@@](C)(O)[C@@H](OC(C)=O)/C=C/[C@@H]1C" next
2.21

Consider next the molecule CC[C@H](OC)[C@@H](C)[C@H]1O[C@@H]1[C@@H](O)[C@H](C)/C=C/C=C(\C)[C@H]1OC(=O)C[C@H](O)CC[C@@](C)(O)[C@H](OC(C)=O)/C=C/[C@@H]1C [Analog 1h, 7R,17S-FD-895] in the same way.
806

Same for CC[C@H](OC)[C@@H](C)[C@H]1O[C@@H]1[C@@H](O)[C@H](C)/C=C/C=C(\C)[C@H]1OC(=O)C[C@@H](O)CC[C@@](C)(O)[C@@H](OC(C)=O)/C=C/[C@@H]1C [Analog 1g, 3S,17S-FD-895]
131

Would you mind doing CC[C@H](OC)[C@@H](C)[C@@H]1O[C@H]1[C@@H](O)[C@H](C)/C=C/C=C(\C)[C@H]1OC(=O)C[C@H](O)CC[C@@](C)(O)[C@@H](OC(C)=O)/C=C/[C@@H]1C [Analog 1i, 17S,18S,19S-FD-895] as well?
446

Same question for CC[C@H](OC)[C@@H](C)[C@H]1O[C@@H]1[C@H](O)[C@H](C)/C=C/C=C(\C)[C@H]1OC(=O)C[C@H](O)CC[C@@](C)(O)[C@@H](OC(C)=O)/C=C/[C@@H]1C [Analog 1, FD-895, reference compound] please.
1.72

What do you get for CC[C@@H](OC)[C@H](C)[C@H]1O[C@@H]1[C@@H](O)[C@H](C)/C=C/C=C(\C)[C@H]1OC(=O)C[C@H](O)CC[C@@](C)(O)[C@@H](OC(C)=O)/C=C/[C@@H]1C [Analog 1j, 17S,20S,21R-FD-895] ?
262

# repeat for CC[C@H](OC)[C@@H](C)[C@H]1O[C@@H]1[C@@H](O)[C@H](C)/C=C/C=C(\C)[C@H]1OC(=O)C[C@H](O)CC[C@@](C)(O)[C@@H](OC(C)=O)/C=C/[C@@H]1C [Analog 1d, 17S-FD-895]
2.06
